target-under-test: MK2 (Homo sapiens, UniProt P49137)
Sequence (P49137 whole entry): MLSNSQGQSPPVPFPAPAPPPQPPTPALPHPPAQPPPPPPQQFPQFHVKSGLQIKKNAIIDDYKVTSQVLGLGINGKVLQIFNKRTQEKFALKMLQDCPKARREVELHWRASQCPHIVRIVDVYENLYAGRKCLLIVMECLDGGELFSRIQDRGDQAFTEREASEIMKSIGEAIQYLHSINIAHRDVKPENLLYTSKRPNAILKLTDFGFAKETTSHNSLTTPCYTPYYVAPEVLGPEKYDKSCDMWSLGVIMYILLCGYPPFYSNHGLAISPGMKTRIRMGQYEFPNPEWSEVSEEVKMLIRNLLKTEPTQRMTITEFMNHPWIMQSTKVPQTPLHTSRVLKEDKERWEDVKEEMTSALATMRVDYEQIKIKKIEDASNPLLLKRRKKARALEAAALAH
assay-text: MK2 degradation in human THP-1 monocytic cells (MSD, 24 h)
Assay type: cell-based
Parameters: endogenous in cells
setup-conditions: THP-1 cells, read-out: MK2 MSD THP-1 degradation 24 h GMean External Abs DC50
Reported DC50 values follow for various compounds

| compound | target-under-test | DC50 |
| --- | --- | --- |
| C[C@@H]1CNc2c(sc3ccc4nc(-c5ccc(N6CCN(CC7CCN(c8ccc9c(c8)n(C)c(=O)n9C8CCC(=O)NC8=O)CC7)CC6)cc5)ccc4c23)C(=O)N1 (some centres unmarked) | MK2 (Homo sapiens, UniProt P49137) | < 1 nM |
| C[C@@H]1CN(C)c2c(sc3ccc4nc(-c5ccc(N6CCC(CN7CCN(c8ccc9c(c8)n(C)c(=O)n9C8CCC(=O)NC8=O)CC7)CC6)cc5)ccc4c23)C(=O)N1 (some centres unmarked) | MK2 (Homo sapiens, UniProt P49137) | 1 to 10 nM |
| C[C@@H]1CNc2c(sc3ccc4nc(N5CCC6(CC5)CN(C5CCN(c7cccc8c7n(C)c(=O)n8C7CCC(=O)NC7=O)CC5)C6)ccc4c23)C(=O)N1 (some centres unmarked) | MK2 (Homo sapiens, UniProt P49137) | 1 to 10 nM |
| Cn1c(=O)n(C2CCC(=O)NC2=O)c2ccc(N3CCC(CN4CCN(c5cc(C#N)cc(-c6cc(-c7cc8c([nH]7)CCNC8=O)ccn6)c5)CC4)CC3)cc21 (centres unmarked) | MK2 (Homo sapiens, UniProt P49137) | > 100 nM |

Using the record for Cn1c(=O)n(C2CCC(=O)NC2=O)c2cccc(N3CC(CN4CCN(c5ccc(-c6cc(-c7cc8c([nH]7)C7(CC7)CNC8=O)ccn6)cc5)CC4)C3)c21 (centres unmarked) , report its DC50.
< 1 nM

Origin of the recorded values: patent US20230135894A1
